Tested on: waterhemp (common waterhemp, Amaranthus rudis)
Experiment: Test C greenhouse herbicide test, pre- and postemergence
Format: in vivo
Conditions: Postemergence, 125 g ai/ha; scale 0 to 100, 0 is no effect, 100 is complete control
From the text: […]
Entries whose Plant response rating, Waterhemp is below 90 take MET; entries at or above 90 take NOT MET.

Answered cases to consult:
Cc1cc(C)c2sc(C)c(-c3c(OC(=O)OCCCl)c(C)nn(C)c3=O)c2c1 = MET
CC(=O)Oc1c(C)nn(C)c(=O)c1-c1c(C)sc2c(C)cc(C)cc12 = MET
Cc1nn(C)c(=O)c(-c2c(C)sc3ccccc23)c1O = MET
Cc1ccc2ccccc2c1-c1c(O)cnn(C)c1=O = NOT MET
CCC(=O)Oc1c(C)nn(C)c(=O)c1-c1c(C)sc2ccc(C)cc12 = NOT MET

A record lists `Cc1nn(C)c(=O)c(-c2c(C)sc3ccc(Cl)cc23)c1O` . Is its Plant response rating, Waterhemp below 90?
NOT MET

A record lists `CC(=O)Oc1c(C)nn(C)c(=O)c1-c1c(C)oc2c(C)cc(C)cc12` . Is its Plant response rating, Waterhemp below 90?
MET

A record lists `Cc1cc(C)c2ccccc2c1-c1c(O)cnn(C)c1=O` . Is its Plant response rating, Waterhemp below 90?
MET
